System: Staphylococcus epidermidis 835
test-name: MIC, broth microdilution, SE 835
Type: cell-based
particulars: Staphylococcus epidermidis, 835; Table 2; in the presence of 0.002% Polysorbate 80; class symbols; read-out: MIC SE 835
Quick list: MIC per entry.

I have this molecule here, CN[C@H](CC(C)C)C(=O)N[C@H]1C(=O)N[C@@H](CC(=O)NC(=O)c2ccc(OCCOC)cc2)C(=O)N[C@H]2C(=O)N[C@H]3C(=O)N[C@H](C(=O)N[C@H](C(=O)NC4C5CC6CC(C5)CC4C6)c4cc(O)cc(O)c4-c4cc3ccc4O)[C@H](O)c3ccc(c(Cl)c3)Oc3cc2cc(c3O[C@@H]2O[C@H](CO)[C@@H](O)[C@H](O)[C@H]2O[C@H]2C[C@](C)(N)[C@H](O)[C@H](C)O2)Oc2ccc(cc2Cl)[C@H]1O (some centres unmarked) [Compound 65] , and I need its recorded MIC.
0.5 to 1 µg/mL

# context switch: different molecule, same MIC
// MIC lookup, key: CNCCOc1ccc(C(=O)NC(=O)C[C@@H]2NC(=O)[C@H](NC(=O)[C@@H](CC(C)C)NC)[C@H](O)c3ccc(c(Cl)c3)Oc3cc4cc(c3O[C@@H]3O[C@H](CO)[C@@H](O)[C@H](O)[C@H]3O[C@H]3C[C@](C)(N)[C@H](O)[C@H](C)O3)Oc3ccc(cc3Cl)[C@@H](O)[C@@H]3NC(=O)[C@H](NC(=O)[C@@H]4NC2=O)c2ccc(O)c(c2)-c2c(O)cc(O)cc2[C@@H](C(=O)NC2C4CC5CC(C4)CC2C5)NC3=O)cc1 (some centres unmarked) [Compound 67]
1 to 2 µg/mL
